Reference for the values: PubChem BioAssay AID2060899

system: 565726-208-R1-J5-PDC complex spheroids, growth inhibition; experiment: Anticancer human tumor 565726-208-R1-J5-PDC patient-derived pancreatic adenocarcinoma cell line growth inhibition [RAS]; conditions: second compound 0.00949 µM; first compound 0.000949 µM; stronger effect = lower value
viability, T/C: recorded values
Assay Readout: viability, T/C (%)

Compound	Study Target	Reading
CCc1c2c(nc3ccc(O)cc13)-c1cc3c(c(=O)n1C2)COC(=O)[C@]3(O)CC + CCn1c(-c2cccnc2C(C)OC)c2c3cc(ccc31)N1CCOC(CC(NC(=O)C(C(C)C)N(C)C(=O)C3(F)CCN(C(=O)C#CC(C)(C)N(C)C)CC3)C(=O)N3CCCC(N3)C(=O)OCC(C)(C)C2)C1	565726-208-R1-J5-PDC complex spheroids, growth inhibition	79
CC1(C)CCC(Nc2ncc(C(F)(F)F)c(-c3c[nH]c4c(P(C)(C)=O)c(C#N)ccc34)n2)CN1 (centres undefined) + CCn1c(-c2cccnc2C(C)OC)c2c3cc(ccc31)N1CCOC(CC(NC(=O)C(C(C)C)N(C)C(=O)C3(F)CCN(C(=O)C#CC(C)(C)N(C)C)CC3)C(=O)N3CCCC(N3)C(=O)OCC(C)(C)C2)C1	565726-208-R1-J5-PDC complex spheroids, growth inhibition	83.2
CC1(C)CCC(Nc2ncc(C(F)(F)F)c(-c3c[nH]c4c(P(C)(C)=O)c(C#N)ccc34)n2)CN1 (centres undefined) + CCn1c(-c2cc(N3CCN(C)CC3)cnc2C(C)OC)c2c3cc(ccc31)-c1csc(n1)CC(NC(=O)C1CC1C)C(=O)N1CCCC(N1)C(=O)OCC(C)(C)C2	565726-208-R1-J5-PDC complex spheroids, growth inhibition	37.3
CCc1c2c(nc3ccc(O)cc13)-c1cc3c(c(=O)n1C2)COC(=O)[C@]3(O)CC + CCn1c(-c2cc(N3CCN(C)CC3)cnc2C(C)OC)c2c3cc(ccc31)-c1csc(n1)CC(NC(=O)C1CC1C)C(=O)N1CCCC(N1)C(=O)OCC(C)(C)C2	565726-208-R1-J5-PDC complex spheroids, growth inhibition	36.1

* * *

tested on: 565726-208-R1-J5-PDC complex spheroids, growth inhibition; assay: Anticancer human tumor 565726-208-R1-J5-PDC cell line growth inhibition [RAS]; details: second compound 0.000949 µM; first compound 10 µM; active means viability on the fitted dose curve at most 10% of control; inactive means the rest;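 note: spheroids exposed to compounds for seven days before readout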
Labels: active, inactive

Compound	Class Name
CCC(CC)c1cc(NC2CCC(N)C2)n2nccc2n1 (centres undefined) + CCn1c(-c2cccnc2C(C)OC)c2c3cc(ccc31)N1CCOC(CC(NC(=O)C(C(C)C)N(C)C(=O)C3(F)CCN(C(=O)C#CC(C)(C)N(C)C)CC3)C(=O)N3CCCC(N3)C(=O)OCC(C)(C)C2)C1	active
CC(=O)OC12COC1CC(O)C1(C)C(=O)C(O)C3=C(C)C(OC(=O)C(O)C(NC(=O)OC(C)(C)C)c4ccccc4)CC(O)(C(OC(=O)c4ccccc4)C21)C3(C)C (centres undefined) + CCn1c(-c2cccnc2C(C)OC)c2c3cc(ccc31)N1CCOC(CC(NC(=O)C(C(C)C)N(C)C(=O)C3(F)CCN(C(=O)C#CC(C)(C)N(C)C)CC3)C(=O)N3CCCC(N3)C(=O)OCC(C)(C)C2)C1	inactive
CC(Nc1ccc2c(c1)OCCn1cc(N3C(=O)OCC3C(F)F)nc1-2)C(N)=O (centres undefined) + CCn1c(-c2cccnc2C(C)OC)c2c3cc(ccc31)N1CCOC(CC(NC(=O)C(C(C)C)N(C)C(=O)C3(F)CCN(C(=O)C#CC(C)(C)N(C)C)CC3)C(=O)N3CCCC(N3)C(=O)OCC(C)(C)C2)C1	inactive
CCC(CC)c1cc(NC2CCC(N)C2)n2nccc2n1 (centres undefined) + CCn1c(-c2cc(N3CCN(C)CC3)cnc2C(C)OC)c2c3cc(ccc31)-c1csc(n1)CC(NC(=O)C1CC1C)C(=O)N1CCCC(N1)C(=O)OCC(C)(C)C2	active

* * *

test system: 565726-208-R1-J5-PDC complex spheroids, growth inhibition; assay: Anticancer human tumor 565726-208-R1-J5-PDC cell line growth inhibition [RAS]; conditions: curve of first compound; second compound 0.003 µM;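 note: spheroids exposed to compounds for seven days before readout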

Molecule	Measurement Units	Bound Operator	IC50
CC(=O)OC12COC1CC(O)C1(C)C(=O)C(O)C3=C(C)C(OC(=O)C(O)C(NC(=O)OC(C)(C)C)c4ccccc4)CC(O)(C(OC(=O)c4ccccc4)C21)C3(C)C (configuration not stated) + CCn1c(-c2cccnc2C(C)OC)c2c3cc(ccc31)N1CCOC(CC(NC(=O)C(C(C)C)N(C)C(=O)C3(F)CCN(C(=O)C#CC(C)(C)N(C)C)CC3)C(=O)N3CCCC(N3)C(=O)OCC(C)(C)C2)C1	nM	<	31.6
CCC(CC)c1cc(NC2CCC(N)C2)n2nccc2n1 (configuration not stated) + CCn1c(-c2cccnc2C(C)OC)c2c3cc(ccc31)N1CCOC(CC(NC(=O)C(C(C)C)N(C)C(=O)C3(F)CCN(C(=O)C#CC(C)(C)N(C)C)CC3)C(=O)N3CCCC(N3)C(=O)OCC(C)(C)C2)C1	nM	=	1490

* * *

tested on: 565726-208-R1-J5-PDC complex spheroids, growth inhibition; assay: Anticancer human tumor 565726-208-R1-J5-PDC cell line growth inhibition [RAS]; details: second compound 0.01 µM; first compound 0.0316 µM; stronger effect = lower value;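 note: spheroids exposed to compounds for seven days before readout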;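 for viability, T/C: 100% = DMSO vehicle control viability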

Compound	viability, T/C, %
CC(=O)OC12COC1CC(O)C1(C)C(=O)C(O)C3=C(C)C(OC(=O)C(O)C(NC(=O)OC(C)(C)C)c4ccccc4)CC(O)(C(OC(=O)c4ccccc4)C21)C3(C)C (centres undefined) + C=CC(=O)N1CCN(c2nc(OCC3CCCN3C)nc3c(F)c(-c4nc(N)cc(C)c4C(F)(F)F)c(Cl)cc23)C(C)C1	25
O=C(c1ccc(F)c(F)c1Nc1ccc(I)cc1F)N1CC(O)([C@@H]2CCCCN2)C1 + C=CC(=O)N1CCN(c2nc(OCC3CCCN3C)nc3c(F)c(-c4nc(N)cc(C)c4C(F)(F)F)c(Cl)cc23)C(C)C1	88.3
Cc1nc(N2CCC3(CC2)COC(C)C3N)c(CO)nc1Sc1ccnc(N)c1Cl (centres undefined) + C=CC(=O)N1CCN(c2nc(OCC3CCCN3C)nc3c(F)c(-c4nc(N)cc(C)c4C(F)(F)F)c(Cl)cc23)C(C)C1	154
C[C@@H](NC(=O)c1ncnc(N)c1Cl)c1ncc(C(=O)Nc2cc(C(F)(F)F)c(Cl)cn2)s1 + C=CC(=O)N1CCN(c2nc(OCC3CCCN3C)nc3c(F)c(-c4nc(N)cc(C)c4C(F)(F)F)c(Cl)cc23)C(C)C1	95.5
CC1(O)CCCC1n1c(=O)c(C(F)F)cc2cnc(NC3CCN(S(C)(=O)=O)CC3)nc21 (centres undefined) + C=CC(=O)N1CCN(c2nc(OCC3CCCN3C)nc3c(F)c(-c4nc(N)cc(C)c4C(F)(F)F)c(Cl)cc23)C(C)C1	111
Nc1ccn(C2OC(CO)C(O)C2(F)F)c(=O)n1 (centres undefined) + C=CC(=O)N1CCN(c2nc(OCC3CCCN3C)nc3c(F)c(-c4nc(N)cc(C)c4C(F)(F)F)c(Cl)cc23)C(C)C1	84.9
C=CC(=O)Nc1cc(Nc2nccc(-c3cn(C)c4ccccc34)n2)c(OC)cc1N(C)CCN(C)C + C=CC(=O)N1CCN(c2nc(OCC3CCCN3C)nc3c(F)c(-c4nc(N)cc(C)c4C(F)(F)F)c(Cl)cc23)C(C)C1	106
NC1c2ccccc2OC12CCN(c1cnc3c(N4CCCc5ncccc54)n[nH]c3n1)CC2 (centres undefined) + C=CC(=O)N1CCN(c2nc(OCC3CCCN3C)nc3c(F)c(-c4nc(N)cc(C)c4C(F)(F)F)c(Cl)cc23)C(C)C1	83.5
CC(Nc1ccc2c(c1)OCCn1cc(N3C(=O)OCC3C(F)F)nc1-2)C(N)=O (centres undefined) + C=CC(=O)N1CCN(c2nc(OCC3CCCN3C)nc3c(F)c(-c4nc(N)cc(C)c4C(F)(F)F)c(Cl)cc23)C(C)C1	95.4

* * *

viability, T/C overview
tested on: 565726-208-R1-J5-PDC complex spheroids, growth inhibition; test: Anticancer human tumor 565726-208-R1-J5-PDC cell line growth inhibition [RAS]; conditions: second compound 0.003 µM; first compound 10 µM; stronger effect = lower value;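 note: spheroids exposed to compounds for seven days before readout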;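 for viability, T/C: 100% = DMSO vehicle control viability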

Compound	Measurement Units	viability, T/C
CC1(O)CCCC1n1c(=O)c(C(F)F)cc2cnc(NC3CCN(S(C)(=O)=O)CC3)nc21 (centres undefined) + CCn1c(-c2cc(N3CCN(C)CC3)cnc2C(C)OC)c2c3cc(ccc31)-c1csc(n1)CC(NC(=O)C1CC1C)C(=O)N1CCCC(N1)C(=O)OCC(C)(C)C2	%	2.82
CC(=O)OC12COC1CC(O)C1(C)C(=O)C(O)C3=C(C)C(OC(=O)C(O)C(NC(=O)OC(C)(C)C)c4ccccc4)CC(O)(C(OC(=O)c4ccccc4)C21)C3(C)C (centres undefined) + CCn1c(-c2cccnc2C(C)OC)c2c3cc(ccc31)N1CCOC(CC(NC(=O)C(C(C)C)N(C)C(=O)C3(F)CCN(C(=O)C#CC(C)(C)N(C)C)CC3)C(=O)N3CCCC(N3)C(=O)OCC(C)(C)C2)C1	%	22.8
Cc1nc(N2CCC3(CC2)COC(C)C3N)c(CO)nc1Sc1ccnc(N)c1Cl (centres undefined) + CCn1c(-c2cc(N3CCN(C)CC3)cnc2C(C)OC)c2c3cc(ccc31)-c1csc(n1)CC(NC(=O)C1CC1C)C(=O)N1CCCC(N1)C(=O)OCC(C)(C)C2	%	22
CC1(O)CCCC1n1c(=O)c(C(F)F)cc2cnc(NC3CCN(S(C)(=O)=O)CC3)nc21 (centres undefined) + CCn1c(-c2cccnc2C(C)OC)c2c3cc(ccc31)N1CCOC(CC(NC(=O)C(C(C)C)N(C)C(=O)C3(F)CCN(C(=O)C#CC(C)(C)N(C)C)CC3)C(=O)N3CCCC(N3)C(=O)OCC(C)(C)C2)C1	%	5.57
